TESTED TARGET: T1, human serum albumin (human, UniProt P02768 25-609)
T1 construct: Immobilised on SPR chips; also added in solution in the FcRn occupancy assays; also called HSA; humanSA
TEST DESCRIPTION: SPR Biacore 8K+ SCK, albumin on chip, pH 7.4
METRIC: fold decrease in affinity compared to the parental Alb23 VHH fragment

# BINDER, ASSAY RESULT
measured = [
    ("Alb23 M34A (VHH, VHH alone) VHH: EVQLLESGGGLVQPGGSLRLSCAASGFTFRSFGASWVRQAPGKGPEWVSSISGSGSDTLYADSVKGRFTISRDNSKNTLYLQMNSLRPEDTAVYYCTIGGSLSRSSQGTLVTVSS", "≥ 10 fold"),
    ("Alb23 F32A (VHH, VHH alone) VHH: EVQLLESGGGLVQPGGSLRLSCAASGFTFRSAGMSWVRQAPGKGPEWVSSISGSGSDTLYADSVKGRFTISRDNSKNTLYLQMNSLRPEDTAVYYCTIGGSLSRSSQGTLVTVSS", "≥ 10 fold"),
    ("Alb23 L59A (VHH, VHH alone) VHH: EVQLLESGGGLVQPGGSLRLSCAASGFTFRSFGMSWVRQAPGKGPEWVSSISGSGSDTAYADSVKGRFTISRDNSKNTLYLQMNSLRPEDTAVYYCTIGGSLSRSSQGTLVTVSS", "≥ 10 fold"),
    ("Alb23 G99A (VHH, VHH alone) VHH: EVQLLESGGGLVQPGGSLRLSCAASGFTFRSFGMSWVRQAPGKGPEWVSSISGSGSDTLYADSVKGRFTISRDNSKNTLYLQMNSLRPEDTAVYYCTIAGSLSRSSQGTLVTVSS", "≥ 10 fold"),
    ("Alb23 G33A/S101A (VHH, VHH alone) VHH: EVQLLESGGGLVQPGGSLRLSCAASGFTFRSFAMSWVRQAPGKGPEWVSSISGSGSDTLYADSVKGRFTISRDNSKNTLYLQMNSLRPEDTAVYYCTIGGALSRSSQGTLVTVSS", "≥ 10 fold"),
    ("Alb23 G100A (VHH, VHH alone) VHH: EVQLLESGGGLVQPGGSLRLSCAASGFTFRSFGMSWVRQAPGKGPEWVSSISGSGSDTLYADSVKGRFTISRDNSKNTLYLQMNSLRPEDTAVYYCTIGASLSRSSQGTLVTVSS", "≥ 10 fold"),
]
